Attribution: paper PMC13462928

target: UniProt Q9UKK9; assay: NanoBRET NUDT5 target engagement (TE) assay in HEK293 cells; assay type: cell-based; set-up: expressed in transfected cells; host or cells: HEK293; settings: read-out: EC50 (µM), TE 4h; HEK293, 4 h, Supplementary Table 1
Each entry below carries its reported EC50.

Nc1ncnc2c1c(-c1ccc(Oc3ccccc3)cc1)nn2[C@@H]1CCCN(C(=O)c2cn(CCOCCOCCOCCNc3cccc4c3C(=O)N(C3CCC(=O)NC3=O)C4=O)nn2)C1 (stereo partly drawn) [Compound P13I1, reference compound]; 8.9 µM
Cc1ncsc1-c1ccc(CNC(=O)C2CC(O)CN2C(=O)C(NC(=O)COCCOCCCCCCC(=O)N2CCCC(n3nc(-c4ccc(Oc5ccccc5)cc4)c4c(N)ncnc43)C2)C(C)(C)C)cc1 (stereo not drawn); > 10 µM
Cc1ncsc1-c1ccc(CNC(=O)C2CC(O)CN2C(=O)C(NC(=O)CCCCCOCCCCCOCCCCCCN2CCCC(n3nc(-c4ccc(Oc5ccccc5)cc4)c4c(N)ncnc43)C2)C(C)(C)C)cc1 (stereo not drawn); > 10 µM

Documented EC50 of Nc1ncnc2c1c(-c1ccc(Oc3ccccc3)cc1)nn2C1CCN(CCOCCOCC(=O)Nc2ccc3c(c2)C(=O)N(C2CCC(=O)NC2=O)C3=O)CC1 (stereo not drawn) [MT-802, reference compound] : 1.3 µM

Documented EC50 of Cc1ncsc1-c1ccc(CNC(=O)C2CC(O)CN2C(=O)C(NC(=O)COCCOCCCCCCC(=O)N2CCC(n3nc(-c4ccc(Oc5ccccc5)cc4)c4c(N)ncnc43)CC2)C(C)(C)C)cc1 (stereo not drawn) : > 10 µM

Documented EC50 of Cc1ncsc1-c1ccc(CNC(=O)C2CC(O)CN2C(=O)C(NC(=O)CCCCCOCCOCCOCCCCCCN2CCCC(n3nc(-c4ccc(Oc5ccccc5)cc4)c4c(N)ncnc43)C2)C(C)(C)C)cc1 (stereo not drawn) : > 10 µM
